The measurements presented in this section are drawn from patent US20030207877A1.

# test system: HCMV polymerase (Human cytomegalovirus, UniProt P08546)
# Sequence (P08546 whole entry): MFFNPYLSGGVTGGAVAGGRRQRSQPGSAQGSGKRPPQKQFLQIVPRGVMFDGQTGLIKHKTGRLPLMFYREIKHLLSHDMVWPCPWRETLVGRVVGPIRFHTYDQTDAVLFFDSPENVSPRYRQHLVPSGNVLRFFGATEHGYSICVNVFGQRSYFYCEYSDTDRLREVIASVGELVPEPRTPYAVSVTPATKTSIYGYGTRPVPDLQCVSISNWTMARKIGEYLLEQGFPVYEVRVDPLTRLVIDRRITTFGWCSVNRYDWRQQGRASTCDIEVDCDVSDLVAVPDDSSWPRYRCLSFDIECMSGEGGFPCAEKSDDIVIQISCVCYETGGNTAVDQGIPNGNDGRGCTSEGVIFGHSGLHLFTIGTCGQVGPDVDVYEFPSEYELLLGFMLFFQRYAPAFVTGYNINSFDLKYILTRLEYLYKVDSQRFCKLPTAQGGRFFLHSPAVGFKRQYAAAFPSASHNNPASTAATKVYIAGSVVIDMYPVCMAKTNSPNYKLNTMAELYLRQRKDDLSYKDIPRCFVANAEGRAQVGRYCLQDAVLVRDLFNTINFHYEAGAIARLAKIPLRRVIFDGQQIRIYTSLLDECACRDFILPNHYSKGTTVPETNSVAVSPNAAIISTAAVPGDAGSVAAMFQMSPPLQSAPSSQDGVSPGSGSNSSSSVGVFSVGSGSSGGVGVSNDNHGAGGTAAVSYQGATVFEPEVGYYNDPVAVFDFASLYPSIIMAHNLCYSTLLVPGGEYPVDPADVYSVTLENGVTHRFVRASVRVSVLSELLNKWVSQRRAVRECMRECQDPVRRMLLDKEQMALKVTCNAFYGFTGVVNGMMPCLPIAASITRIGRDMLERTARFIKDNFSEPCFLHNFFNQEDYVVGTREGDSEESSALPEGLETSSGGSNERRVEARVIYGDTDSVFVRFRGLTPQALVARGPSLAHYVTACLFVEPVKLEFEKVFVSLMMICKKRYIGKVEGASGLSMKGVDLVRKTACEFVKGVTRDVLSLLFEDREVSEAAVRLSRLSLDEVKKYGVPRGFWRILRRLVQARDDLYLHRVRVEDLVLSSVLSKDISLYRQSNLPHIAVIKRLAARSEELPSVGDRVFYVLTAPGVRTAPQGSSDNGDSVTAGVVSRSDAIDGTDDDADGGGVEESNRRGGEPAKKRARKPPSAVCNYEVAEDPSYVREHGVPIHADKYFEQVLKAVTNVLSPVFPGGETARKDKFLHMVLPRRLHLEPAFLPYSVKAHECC
# protocol summary: HCMV polymerase assay (scintillation proximity assay), original and modified version
# test parameters: SPA; several values per example = repeat determinations, assay version not given; read-out: CMV Polymerase IC50
pIC50: −log10 of the molar value.
List of pIC50 values.

{"columns": ["compound", "qualifying sign", "pIC50"],
 "data": [
  ["CN(Cc1cc2c3c(c1)c(=O)c(C(=O)NCc1ccc(Cl)cc1)cn3CC(=O)N2C)C[C@@H](O)c1nccs1", "=", 6.31],
  ["Cc1cccc(C(O)CN(C)Cc2cc3c4c(c2)c(=O)c(C(=O)NCc2ccc(Cl)cc2)cn4CC(=O)N3C)n1 (racemic)", "=", 5.96],
  ["CN(Cc1cc2c3c(c1)c(=O)c(C(=O)NCc1ccc(F)cc1)cn3CC(=O)N2C)C[C@@H](O)c1cnccn1", "=", 5.96],
  ["CN(Cc1cc2c3c(c1)c(=O)c(C(=O)NCc1ccc(Cl)cc1)cn3CC(=O)N2CCO)CC(O)c1cc2ccccc2o1 (racemic)", "=", 6.06],
  ["CN(Cc1cc2c3c(c1)c(=O)c(C(=O)NCc1ccc(Cl)cc1)cn3CC(=O)N2C)CC(O)c1ccoc1 (racemic)", "=", 6.24],
  ["CN(Cc1cc2c3c(c1)c(=O)c(C(=O)NCc1ccc(F)cc1)cn3CC(=O)N2C)C[C@@H](O)c1ccco1", "=", 6.38],
  ["CN(Cc1cc2c3c(c1)c(=O)c(C(=O)NCc1ccc(Cl)cc1)cn3CC(=O)N2C)CC(O)c1ccccc1 (centres unmarked)", "=", 6.66],
  ["CN(Cc1cc2c3c(c1)c(=O)c(C(=O)NCc1ccc(Cl)cc1)cn3CC(=O)N2C)C[C@@H](O)c1cc2ccccc2o1", "=", 8.40],
  ["CN(Cc1cc2c3c(c1)c(=O)c(C(=O)NCc1ccc(Cl)cc1)cn3CC(=O)N2C)CC(O)Cc1ccccc1 (racemic)", "=", 6.06],
  ["CN(Cc1cc2c3c(c1)c(=O)c(C(=O)NCc1ccc(F)cc1)cn3CC(=O)N2C)C[C@@H](O)c1cc2ccccc2o1", ">", 7.52],
  ["CN(Cc1cc2c3c(c1)c(=O)c(C(=O)NCc1ccc(F)cc1)cn3CC(=O)N2C)C[C@@H](O)c1cccnc1", "=", 6.03]
]}
